test system: Escherichia coli TOP10; test: shrunken log2 fold change of peptide-encoding DNA abundance (4.5 h post-induction vs induction); higher = less antimicrobial activity (less host growth inhibition); details: time post-induction: 4.5 h; library: site-saturation at positions 5, 18, 19, 20;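 also: peptides expressed intracellularly from a pBAD plasmid library in pooled LB shake-flask culture, induced with 0.3% L-arabinose, DNA abundance read by NGS, three biological replicates, DESeq2 with apeglm shrinkage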
Returns the class for an entry based on its shrunken log2 fold change. Class ranges: bin A = under -0.09, bin B = from -0.09 up to 0.02, bin C = 0.02 and over

{"columns": ["MACROMOLECULE_SEQUENCE", "MEASURED_ON", "ASSIGNED_CLASS"],
 "data": [
  ["RRIRSRPPRLPRPRPRPLAFPRP", "Escherichia coli TOP10", "bin B"],
  ["RRIRYRPPRLPRPRPRPYVMPRP", "Escherichia coli TOP10", "bin A"],
  ["RRIRCRPPRLPRPRPRPYARPRP", "Escherichia coli TOP10", "bin A"],
  ["RRIRDRPPRLPRPRPRPDPHPRP", "Escherichia coli TOP10", "bin C"],
  ["RRIRHRPPRLPRPRPRPKHWPRP", "Escherichia coli TOP10", "bin C"],
  ["RRIRIRPPRLPRPRPRPHELPRP", "Escherichia coli TOP10", "bin A"],
  ["RRIRARPPRLPRPRPRPTDMPRP", "Escherichia coli TOP10", "bin B"],
  ["RRIRIRPPRLPRPRPRPYWNPRP", "Escherichia coli TOP10", "bin A"],
  ["RRIRQRPPRLPRPRPRPCMMPRP", "Escherichia coli TOP10", "bin A"],
  ["RRIRPRPPRLPRPRPRPQAMPRP", "Escherichia coli TOP10", "bin C"],
  ["RRIRLRPPRLPRPRPRPSWSPRP", "Escherichia coli TOP10", "bin B"],
  ["RRIRIRPPRLPRPRPRPWVVPRP", "Escherichia coli TOP10", "bin A"],
  ["RRIRPRPPRLPRPRPRPFGHPRP", "Escherichia coli TOP10", "bin B"],
  ["RRIRARPPRLPRPRPRPTAMPRP", "Escherichia coli TOP10", "bin C"],
  ["RRIRSRPPRLPRPRPRPQDFPRP", "Escherichia coli TOP10", "bin A"],
  ["RRIRVRPPRLPRPRPRPKWRPRP", "Escherichia coli TOP10", "bin C"],
  ["RRIRLRPPRLPRPRPRPSAVPRP", "Escherichia coli TOP10", "bin A"],
  ["RRIRTRPPRLPRPRPRPDEVPRP", "Escherichia coli TOP10", "bin B"],
  ["RRIRIRPPRLPRPRPRPVQKPRP", "Escherichia coli TOP10", "bin B"],
  ["RRIRCRPPRLPRPRPRPDCWPRP", "Escherichia coli TOP10", "bin C"],
  ["RRIRCRPPRLPRPRPRPGSSPRP", "Escherichia coli TOP10", "bin B"],
  ["RRIRSRPPRLPRPRPRPVRHPRP", "Escherichia coli TOP10", "bin B"],
  ["RRIRRRPPRLPRPRPRPVMQPRP", "Escherichia coli TOP10", "bin C"],
  ["RRIRRRPPRLPRPRPRPSLWPRP", "Escherichia coli TOP10", "bin C"],
  ["RRIRMRPPRLPRPRPRPPNGPRP", "Escherichia coli TOP10", "bin C"],
  ["RRIRTRPPRLPRPRPRPFNHPRP", "Escherichia coli TOP10", "bin B"],
  ["RRIRSRPPRLPRPRPRPRCRPRP", "Escherichia coli TOP10", "bin C"],
  ["RRIRCRPPRLPRPRPRPNFSPRP", "Escherichia coli TOP10", "bin A"],
  ["RRIRVRPPRLPRPRPRPAEDPRP", "Escherichia coli TOP10", "bin B"],
  ["RRIRSRPPRLPRPRPRPHYKPRP", "Escherichia coli TOP10", "bin A"],
  ["RRIRTRPPRLPRPRPRPMMMPRP", "Escherichia coli TOP10", "bin C"]
]}
